Tested on: Rhizoctonia solani
Experiment: In vivo fungicidal activity against Rhizoctonia solani in rice seedlings assessed as control of sheath blight disease at 250 ppm by curative foliar treatment
Assay type: functional
observation type: Activity (%)

| given smiles | tested on | observation type | readout number |
| --- | --- | --- | --- |
| CCc1ccc2oc(N)c(C(N)=O)c(=O)c2c1 | Rhizoctonia solani | Activity | 90 |
| NC(=O)c1c(N)oc2ccc(Cl)cc2c1=O | Rhizoctonia solani | Activity | 96 |
| Cc1ccc2oc(N)c(C(N)=O)c(=O)c2c1 | Rhizoctonia solani | Activity | 100 |
| NC(=O)c1c(N)oc2ccccc2c1=O | Rhizoctonia solani | Activity | 100 |

====

Test system: Fusarium fujikuroi
Assay: Fungicidal activity against Fusarium fujikuroi by agar dilution method
Format: functional
observation type: MIC

| molecule | tested on | result |
| --- | --- | --- |
| CC(C)c1ccc2oc(N)c(C(N)=O)c(=O)c2c1 | Fusarium fujikuroi | > 100 µg/mL |
| CCC(C)c1ccc2oc(N)c(C(N)=O)c(=O)c2c1 (centres undefined) | Fusarium fujikuroi | > 100 µg/mL |
| C/C(=N/Nc1nc(C)cc(C)n1)c1ccccc1C [FERIMZONE] | Fusarium fujikuroi | > 100 µg/mL |
| CC(C)(C)c1ccc2oc(N)c(C(N)=O)c(=O)c2c1 | Fusarium fujikuroi | 12.5 µg/mL |

====

Test system: Pyricularia oryzae
Test: Fungicidal activity against Magnaporthe oryzae in rice seedlings assessed as control of rice blast at 500 ppm by preventive foliar treatment
Type: functional

| compound | Activity, % |
| --- | --- |
| CC(C)c1ccc2oc(N)c(C(N)=O)c(=O)c2c1 | 74 |
| CCC(C)c1ccc2oc(N)c(C(N)=O)c(=O)c2c1 (centres undefined) | 19 |
| CC(C)(C)c1ccc2oc(N)c(C(N)=O)c(=O)c2c1 | 81 |
| C/C(=N/Nc1nc(C)cc(C)n1)c1ccccc1C | 99 |

====

Tested on: Nakataea oryzae
Assay: Fungicidal activity against Magnaporthe salvinii by agar dilution method
Assay type: functional
log10(MIC) values, listed per item
observation type: log10(MIC) (log10 of the value in µg/mL)

| given smiles | log10(MIC) |
| --- | --- |
| NC(=O)c1c(N)oc2ccc(I)cc2c1=O | 0.49 |
| CNc1oc2ccc(C(C)(C)C)cc2c(=O)c1C(N)=O | 0.19 |
| Cc1ccc2oc(N)c(C(N)=O)c(=O)c2c1 | 0.80 |
| CCCC(C)(C)c1ccc2oc(N)c(C(N)=O)c(=O)c2c1 | 0.80 |
| CC(=O)Nc1oc2ccccc2c(=O)c1C(N)=O | 2.00 |
| CC(C)(C)c1ccc2oc(N)c(C(N)=O)c(=O)c2c1 | -0.11 |
| NC(=O)c1c(N)oc2ccc(F)cc2c1=O | 1.40 |
| NC(=O)c1c(N)oc2ccccc2c1=O | 1.10 |
| CCC(C)(C)c1ccc2oc(N)c(C(N)=O)c(=O)c2c1 | 0.80 |

====

System: Nakataea oryzae
Experiment: Fungicidal activity against Magnaporthe salvinii by agar dilution method
Format: functional
log10(MIC) values, listed per item
observation type: log10(MIC) (log10 of the value in µg/mL)

| compound | log10(MIC) |
| --- | --- |
| CC(C)C(C)(C)c1ccc2oc(N)c(C(N)=O)c(=O)c2c1 | 0.80 |
| CCCCc1ccc2oc(N)c(C(N)=O)c(=O)c2c1 | 1.70 |
| NC(=O)c1c(N)oc2ccc(Cl)cc2c1=O | 1.10 |
| CC(=O)Nc1oc2ccc(C(C)(C)C)cc2c(=O)c1C(N)=O | 0.80 |
| CCC(C)(CC)c1ccc2oc(N)c(C(N)=O)c(=O)c2c1 | 0.49 |
| CCOC(=O)Nc1oc2ccc(C(C)(C)C)cc2c(=O)c1C(N)=O | 1.40 |
| CC(C)c1ccc2oc(N)c(C(N)=O)c(=O)c2c1 | 0.49 |
| CCC(C)c1ccc2oc(N)c(C(N)=O)c(=O)c2c1 (stereo not drawn) | -0.11 |
| CNC(=O)Nc1oc2ccc(C(C)(C)C)cc2c(=O)c1C(N)=O | -0.11 |
| NC(=O)c1c(N)oc2ccc(Br)cc2c1=O | 0.19 |
| C/C(=N/Nc1nc(C)cc(C)n1)c1ccccc1C [FERIMZONE] | 0.19 |
